- assayName: Clearance in human hepatocytes assessed per 10^6 cells
- Format: ADME, cell-based, Hepatocyte
- conditionDetails: read-out: CLH
testReadout: hepatocyte CLint (µL/min/1e6 cells)

COc1cc2c(cc1OC)-c1c(-c3cccnc3)ncn1CC2 | 1.7

[P] COc1cc2c(cc1OC)-c1c(-c3cnco3)ncn1CC2
[Q] COc1cc2c(cc1OC)-c1c(-c3cccnc3)nc(C)n1CC2
Pick one: P or Q . Which has the bigger hepatocyte CLint number? Lab note: record the label of whichever item you select.
P

----------
- targetSystem: High affinity cGMP-specific 3',5'-cyclic phosphodiesterase 9A (Homo sapiens)
- Sequence (O76083 whole entry): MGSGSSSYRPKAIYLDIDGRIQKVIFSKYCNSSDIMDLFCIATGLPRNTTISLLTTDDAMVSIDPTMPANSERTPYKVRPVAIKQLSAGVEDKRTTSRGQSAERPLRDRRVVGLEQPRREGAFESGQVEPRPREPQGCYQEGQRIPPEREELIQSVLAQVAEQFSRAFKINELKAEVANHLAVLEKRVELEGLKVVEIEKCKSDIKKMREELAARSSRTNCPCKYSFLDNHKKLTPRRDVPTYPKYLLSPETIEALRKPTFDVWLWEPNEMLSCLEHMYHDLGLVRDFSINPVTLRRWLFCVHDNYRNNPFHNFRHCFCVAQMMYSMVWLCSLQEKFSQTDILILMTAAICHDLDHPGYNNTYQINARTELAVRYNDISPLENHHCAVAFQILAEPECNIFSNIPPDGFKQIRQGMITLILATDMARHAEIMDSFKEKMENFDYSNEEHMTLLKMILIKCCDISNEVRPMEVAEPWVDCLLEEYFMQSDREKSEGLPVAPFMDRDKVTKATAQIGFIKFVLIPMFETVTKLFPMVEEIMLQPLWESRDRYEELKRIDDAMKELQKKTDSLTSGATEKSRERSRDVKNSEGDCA
- assayName: Inhibition of human recombinant PDE9 assessed as inhibition of [3H]cAMP hydrolysis by scintillation proximity assay
pKi: −log10 of the molar value.
Measured pKi accompanies every entry in the list below.

COc1cc2c(cc1OC)-c1c(-c3cncs3)nc(C)n1CC2 | < 5.15
COc1cc2c(cc1OC)-c1c(-c3cccnc3)ncn1CC2 | < 5.37
COc1cc2c(cc1OC)-c1c(-c3cncs3)ncn1CC2 | < 5.70

Recorded pKi of `COc1cc2c(cc1OC)-c1c(-c3cnc(C(=O)N(C)C(C)(C)C)s3)ncn1CC2` , please.
< 5.70

# repeat for `COc1cc2c(cc1OC)-c1c(-c3cccnc3)nc(C)n1CC2`
< 5.10

----------
- assayName: Solubility of the compound in 2% DMSO at pH 7.4
- Assay type: physicochemical
The reader will find reported solubility values listed item by item below.

Sample answers from the record:
COc1cc2c(cc1OC)-c1c(-c3cncs3)nc(C)n1CC2 | > 150 µM
COc1cc2c(cc1OC)-c1c(-c3cnc(C(=O)N(C)C(C)(C)C)s3)ncn1CC2 | > 200 µM
COc1cc2c(cc1OC)-c1c(-c3cccnc3)ncn1CC2 | > 200 µM
COc1cc2c(cc1OC)-c1c(-c3cccnc3)nc(C)n1CC2 | > 200 µM

Okay, now this compound:
Would you mind telling me what solubility value was observed for `COc1cc2c(cc1OC)-c1c(-c3cncs3)ncn1CC2` ?
> 200 µM

----------
- assayName: Drug uptake in CD rat brain at 30 mg/kg, po after 1 hr
- Format: ADME, organism-based
- Parameters: dose 30 mg/kg, route oral
testReadout: concentration at 1 h (ng/g)
Provide the reading as a plain figure in ng/g.

# lookup: concentration at 1 h of `COc1cc2c(cc1OC)-c1c(-c3cncs3)ncn1CC2`
350

----------
- assayName: Clearance in human hepatocytes assessed per 10^6 cells
- Format: ADME, cell-based, Hepatocyte
- conditionDetails: read-out: CLH
testReadout: hepatocyte CLint (µL/min/1e6 cells)

[A] COc1cc2c(cc1OC)-c1c(-c3cnc(C(=O)NC4CCOCC4)s3)ncn1CC2
[B] COc1cc2c(cc1OC)-c1c(-c3cncs3)nc(C)n1CC2
Could you tell me which of A and B has the lower hepatocyte CLint reading? Identify your pick by its label.
A

----------
Here, each record is paired with measured Ki data.
- targetSystem: UniProt:Q9HCR9
- Sequence (Q9HCR9 whole entry): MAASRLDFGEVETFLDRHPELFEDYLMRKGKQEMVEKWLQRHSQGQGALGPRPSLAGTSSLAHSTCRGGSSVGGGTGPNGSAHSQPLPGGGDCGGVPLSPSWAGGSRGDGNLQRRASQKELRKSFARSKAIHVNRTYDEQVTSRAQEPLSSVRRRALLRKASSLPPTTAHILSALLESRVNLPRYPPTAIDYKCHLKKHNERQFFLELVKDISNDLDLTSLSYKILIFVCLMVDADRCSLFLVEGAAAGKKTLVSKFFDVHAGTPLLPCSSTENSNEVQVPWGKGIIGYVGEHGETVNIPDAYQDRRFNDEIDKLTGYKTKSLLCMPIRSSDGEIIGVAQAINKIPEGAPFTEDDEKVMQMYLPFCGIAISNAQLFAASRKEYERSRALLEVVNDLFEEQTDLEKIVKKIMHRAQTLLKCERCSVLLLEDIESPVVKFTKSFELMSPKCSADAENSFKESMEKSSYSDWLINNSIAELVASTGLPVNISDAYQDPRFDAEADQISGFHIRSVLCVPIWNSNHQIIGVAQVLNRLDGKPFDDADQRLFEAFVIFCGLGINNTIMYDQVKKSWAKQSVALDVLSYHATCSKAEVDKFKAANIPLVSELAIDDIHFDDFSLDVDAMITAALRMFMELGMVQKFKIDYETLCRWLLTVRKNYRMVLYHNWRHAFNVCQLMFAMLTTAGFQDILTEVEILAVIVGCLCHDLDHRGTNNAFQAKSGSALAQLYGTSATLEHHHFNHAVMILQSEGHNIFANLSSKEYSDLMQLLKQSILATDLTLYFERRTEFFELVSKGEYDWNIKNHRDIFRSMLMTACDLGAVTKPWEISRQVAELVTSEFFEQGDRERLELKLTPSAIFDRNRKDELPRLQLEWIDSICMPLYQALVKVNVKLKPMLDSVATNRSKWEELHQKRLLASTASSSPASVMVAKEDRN
- assayName: Inhibition of human recombinant PDE11 assessed as inhibition of [3H]cAMP hydrolysis by scintillation proximity assay

COc1cc2c(cc1OC)-c1c(-c3cncs3)ncn1CC2 | > 2 µM
COc1cc2c(cc1OC)-c1c(-c3cnc(C(=O)N(C)C(C)(C)C)s3)ncn1CC2 | > 2 µM
COc1cc2c(cc1OC)-c1c(-c3cccnc3)ncn1CC2 | > 4.27 µM
COc1cc2c(cc1OC)-c1c(-c3cccnc3)nc(C)n1CC2 | > 7.95 µM

Proceeding to the next compound to report its Ki.
Consider the compound shown here: `COc1cc2c(cc1OC)-c1c(-c3cncs3)nc(C)n1CC2` What is its recorded Ki?
> 7.1 µM

----------
- assayName: Clearance in rat hepatocytes assessed per 10^6 cells
- Assay type: ADME, cell-based, Hepatocyte
- conditionDetails: read-out: CLH
testReadout: hepatocyte CLint (µL/min/1e6 cells)

Some solved entries appear below for comparison.
COc1cc2c(cc1OC)-c1c(-c3cccnc3)ncn1CC2 | 11.8
CCOc1cccc(-c2ncn3c2-c2cc(OC)c(OC)cc2CC3)c1 | 61
COc1cc2c(cc1OC)-c1c(-c3cccc(N4CCOCC4)c3)ncn1CC2 | 61
COc1cc2c(cc1OC)-c1c(-c3cnc(C(=O)NC4CCOCC4)s3)ncn1CC2 | 5.7
COc1cc2c(cc1OC)-c1c(-c3cncs3)nc(C)n1CC2 | 9.2
COc1cc2c(cc1OC)-c1c(-c3cccc(Cl)c3)ncn1CC2 | 61

[P] COc1cccc(-c2ncn3c2-c2cc(OC)c(OC)cc2CC3)c1
[Q] COc1cc2c(cc1OC)-c1c(-c3cccnc3)nc(C)n1CC2
Between P and Q , whose recorded hepatocyte CLint is greater? # reply format: chosen label
P
(P: 61 µL/min/1e6 cells, Q: 3.6 µL/min/1e6 cells)

----------
- targetSystem: cAMP and cAMP-inhibited cGMP 3',5'-cyclic phosphodiesterase 10A (Homo sapiens)
- assayName: Inhibition of human recombinant PDE10A assessed as inhibition of [3H]cAMP hydrolysis by scintillation proximity assay
testReadout: Ki (nM)

COc1cc2c(cc1OC)-c1c(-c3cnc(N4CCOCC4)s3)ncn1CC2 | 26

[a] COc1cc2c(cc1OC)-c1c(-c3cnc(CO)s3)ncn1CC2
[b] COc1cc2c(cc1OC)-c1c(-c3cnc(C(=O)N4CCOCC4)s3)ncn1CC2
[c] COc1cc2c(cc1OC)-c1c(-c3cccc(N4CCOCC4)c3)ncn1CC2
Order the 3 molecules from highest to lowest Ki. // list labels; follow requested order
a, b, c
(a: 26 nM, b: 10 nM, c: 6.4 nM)

----------
- targetSystem: cGMP-inhibited 3',5'-cyclic phosphodiesterase 3A (Homo sapiens, UniProt Q14432)
- Sequence (Q14432 whole entry): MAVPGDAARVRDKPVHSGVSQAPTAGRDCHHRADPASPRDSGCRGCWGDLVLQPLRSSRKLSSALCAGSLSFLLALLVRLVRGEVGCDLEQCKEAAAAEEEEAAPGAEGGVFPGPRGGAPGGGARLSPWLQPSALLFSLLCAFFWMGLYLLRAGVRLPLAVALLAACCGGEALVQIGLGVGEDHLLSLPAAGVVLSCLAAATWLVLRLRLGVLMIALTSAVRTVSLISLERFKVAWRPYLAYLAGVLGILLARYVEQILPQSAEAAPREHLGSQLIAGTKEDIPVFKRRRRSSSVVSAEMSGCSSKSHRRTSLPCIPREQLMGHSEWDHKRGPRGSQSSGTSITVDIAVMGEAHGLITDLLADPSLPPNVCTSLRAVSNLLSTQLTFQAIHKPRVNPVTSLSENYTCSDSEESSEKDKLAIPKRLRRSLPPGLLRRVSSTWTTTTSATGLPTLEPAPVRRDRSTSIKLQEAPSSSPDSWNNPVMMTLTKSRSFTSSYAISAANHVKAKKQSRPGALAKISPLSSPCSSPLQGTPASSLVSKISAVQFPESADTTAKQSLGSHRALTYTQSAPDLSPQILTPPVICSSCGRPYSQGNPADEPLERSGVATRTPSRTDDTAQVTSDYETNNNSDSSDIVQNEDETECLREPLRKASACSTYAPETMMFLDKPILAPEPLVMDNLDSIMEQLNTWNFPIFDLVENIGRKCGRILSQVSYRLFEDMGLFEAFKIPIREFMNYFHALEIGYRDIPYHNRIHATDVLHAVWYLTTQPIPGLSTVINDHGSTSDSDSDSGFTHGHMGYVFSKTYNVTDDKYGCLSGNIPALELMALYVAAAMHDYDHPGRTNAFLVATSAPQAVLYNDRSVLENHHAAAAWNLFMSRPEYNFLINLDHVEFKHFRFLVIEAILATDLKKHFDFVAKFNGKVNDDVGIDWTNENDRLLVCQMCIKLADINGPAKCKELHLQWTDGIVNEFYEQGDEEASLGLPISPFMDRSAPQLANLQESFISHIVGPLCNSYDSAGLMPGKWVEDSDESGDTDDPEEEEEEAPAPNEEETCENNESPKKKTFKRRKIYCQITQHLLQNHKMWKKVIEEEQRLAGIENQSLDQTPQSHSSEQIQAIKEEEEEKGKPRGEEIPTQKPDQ
- assayName: Inhibition of human recombinant PDE3A assessed as inhibition of [3H]cAMP hydrolysis by scintillation proximity assay
testReadout: Ki (nM)

[a] COc1cc2c(cc1OC)-c1c(-c3cccc(N4CCOCC4)c3)ncn1CC2
[b] COc1cc2c(cc1OC)-c1c(-c3cncs3)ncn1CC2
[c] COc1cc2c(cc1OC)-c1c(-c3cnc(N4CCOCC4)s3)ncn1CC2
In ascending order of recorded Ki, list the compounds from the set above. Would you mind listing the labels in the order asked for?
c, b, a

----------
hepatocyte CLint reference
- assayName: Clearance in human hepatocytes assessed per 10^6 cells
- Type: ADME, cell-based, Hepatocyte
- conditionDetails: read-out: CLH

Recorded results for 2 compounds are shown here.
COc1cc2c(cc1OC)-c1c(-c3cccc(N4CCOCC4)c3)ncn1CC2 | > 14 µL/min/1e6 cells
COc1cc2c(cc1OC)-c1c(-c3cnc(C(=O)N(C)C(C)(C)C)s3)ncn1CC2 | 66 µL/min/1e6 cells

Now, please, on to the next compound.
Reported hepatocyte CLint, compound `COc1cccc(-c2ncn3c2-c2cc(OC)c(OC)cc2CC3)c1` : ____
> 14 µL/min/1e6 cells

----------
- assayName: Clearance in human hepatocytes assessed per 10^6 cells
- Assay type: ADME, cell-based, Hepatocyte
- conditionDetails: read-out: CLH
// hepatocyte CLint lookup, one value per entry

Recorded hepatocyte CLint, per entry:
CCOc1cccc(-c2ncn3c2-c2cc(OC)c(OC)cc2CC3)c1 | > 14 µL/min/1e6 cells
COc1cc2c(cc1OC)-c1c(-c3cccc(Cl)c3)ncn1CC2 | > 14 µL/min/1e6 cells

// next item, hepatocyte CLint requested
# hepatocyte CLint lookup, item `COc1cc2c(cc1OC)-c1c(-c3cccc(Br)c3)ncn1CC2`
> 14 µL/min/1e6 cells

----------
- targetSystem: cAMP and cAMP-inhibited cGMP 3',5'-cyclic phosphodiesterase 10A (Homo sapiens, UniProt Q9Y233)
- Sequence (Q9Y233 whole entry): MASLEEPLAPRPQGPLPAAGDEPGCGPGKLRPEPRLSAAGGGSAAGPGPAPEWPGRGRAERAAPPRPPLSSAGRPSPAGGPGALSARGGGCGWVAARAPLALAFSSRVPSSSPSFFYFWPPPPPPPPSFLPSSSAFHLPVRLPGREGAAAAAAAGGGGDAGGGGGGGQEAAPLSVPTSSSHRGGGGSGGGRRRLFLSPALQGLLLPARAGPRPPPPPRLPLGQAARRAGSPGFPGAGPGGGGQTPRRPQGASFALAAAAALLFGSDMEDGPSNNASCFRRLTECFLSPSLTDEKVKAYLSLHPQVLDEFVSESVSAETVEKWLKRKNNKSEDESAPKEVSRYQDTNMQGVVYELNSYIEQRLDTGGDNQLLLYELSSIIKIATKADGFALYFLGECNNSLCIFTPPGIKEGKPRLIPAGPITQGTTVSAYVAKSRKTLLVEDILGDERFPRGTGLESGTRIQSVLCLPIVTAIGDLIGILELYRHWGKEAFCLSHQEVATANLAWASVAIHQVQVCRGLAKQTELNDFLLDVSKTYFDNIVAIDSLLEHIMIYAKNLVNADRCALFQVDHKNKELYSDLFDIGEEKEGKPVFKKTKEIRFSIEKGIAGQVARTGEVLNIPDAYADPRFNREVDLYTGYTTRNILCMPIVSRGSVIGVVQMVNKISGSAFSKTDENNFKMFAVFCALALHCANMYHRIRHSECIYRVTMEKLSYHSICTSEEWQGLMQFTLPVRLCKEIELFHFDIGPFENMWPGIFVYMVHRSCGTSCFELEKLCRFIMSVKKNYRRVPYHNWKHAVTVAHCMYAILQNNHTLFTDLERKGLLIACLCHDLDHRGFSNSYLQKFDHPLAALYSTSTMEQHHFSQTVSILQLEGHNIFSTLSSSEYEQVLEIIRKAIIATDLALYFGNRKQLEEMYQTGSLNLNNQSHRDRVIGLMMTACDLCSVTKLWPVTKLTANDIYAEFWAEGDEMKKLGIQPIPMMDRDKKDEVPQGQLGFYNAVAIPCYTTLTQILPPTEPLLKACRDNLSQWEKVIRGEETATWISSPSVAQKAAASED
- assayName: Inhibition of human recombinant PDE10A assessed as inhibition of [3H]cAMP hydrolysis by scintillation proximity assay
pKi: −log10 of the molar value.
testReadout: pKi

COc1cc2c(cc1OC)-c1c(-c3cccnc3)ncn1CC2 | 7.54

[a] COc1cc2c(cc1OC)-c1c(-c3cccc(Br)c3)ncn1CC2
[b] COc1cc2c(cc1OC)-c1c(-c3cccnc3)ncn1C(C)C2 (stereo not drawn)
Field: entry with larger pKi (options a / b ). Answer by quoting the chosen item's label.
b
